# TESTED ON: Sushi domains (SD1/2) protein of the GABAB1a (GB1a) subunit, recombinant
# Sequence (Q9Z0U4 29-158): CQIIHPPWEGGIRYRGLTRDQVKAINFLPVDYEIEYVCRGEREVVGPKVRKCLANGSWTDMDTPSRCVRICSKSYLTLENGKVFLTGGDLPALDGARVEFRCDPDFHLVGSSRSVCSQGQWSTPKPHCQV
# METHOD SUMMARY: FP competition
Non-standard residues stand in square brackets, D forms with d. NMeI = CC[C@H](C)[C@H](NC)C(=O)O; NMeE = CN[C@@H](CCC(=O)O)C(=O)O
Recorded Ki by entry
Write the answer as a number in µM, unit excluded.

[ask] Let me know recorded Ki for Ac-ETEF[NMeI]AWGPTGDED-NH2 (SMILES CC[C@H](C)[C@@H](C(=O)N[C@@H](C)C(=O)N[C@@H](Cc1c[nH]c2ccccc12)C(=O)NCC(=O)N1CCC[C@H]1C(=O)N[C@H](C(=O)NCC(=O)N[C@@H](CC(=O)O)C(=O)N[C@@H](CCC(=O)O)C(=O)N[C@@H](CC(=O)O)C(N)=O)[C@@H](C)O)N(C)C(=O)[C@H](Cc1ccccc1)NC(=O)[C@H](CCC(=O)O)NC(=O)[C@@H](NC(=O)[C@H](CCC(=O)O)NC(C)=O)[C@@H](C)O) [ETEF(N-Me-I)…] , thanks.
[reply] 0.033

[ask] Let me know recorded Ki for Ac-[NMeE]DDSDVWWGGADTD-NH2 (SMILES CC(=O)N(C)[C@@H](CCC(=O)O)C(=O)N[C@@H](CC(=O)O)C(=O)N[C@@H](CC(=O)O)C(=O)N[C@@H](CO)C(=O)N[C@@H](CC(=O)O)C(=O)N[C@H](C(=O)N[C@@H](Cc1c[nH]c2ccccc12)C(=O)N[C@@H](Cc1c[nH]c2ccccc12)C(=O)NCC(=O)NCC(=O)N[C@@H](C)C(=O)N[C@@H](CC(=O)O)C(=O)N[C@H](C(=O)N[C@@H](CC(=O)O)C(N)=O)[C@@H](C)O)C(C)C) [(N-Me-E)…] , thanks.
[reply] 0.67

Where do these numbers come from? They come from patent US20260193293A1.
